Recorded values, source ChEMBL document CHEMBL1201862.

- Tested on: SNB-19
- experiment.summary: NCI tumour cell line growth inhibition, 48 h
Active and inactive are the calls of the source. Rule as the data show it: active = GI50 up to about 1.1 µM and inactive = higher.
Catalogue of compounds with associated GI50

>  <compound>
CC[C@@H]1C[C@H]2CC3c4[nH]c5ccc(O)cc5c4CCN(C2)C31

>  <reported.value>
> 100 µM (inactive)

$$$$
>  <compound>
N#Cc1[nH]c(=O)n(-c2ccc(Cl)cc2)c1N

>  <reported.value>
> 10 µM (inactive)

$$$$
>  <compound>
CC1(C)COC(/C=C/C2=NC(C)(C)CO2)=N1

>  <reported.value>
68.5 µM (inactive)

$$$$
>  <compound>
COC(=O)c1cc(-c2ccc(-c3ccc(O)cc3)cc2)cc(-c2ccc(-c3ccc(O)cc3)cc2)c1

>  <reported.value>
15.5 µM (inactive)

$$$$

In one line, give reported GI50 of the entry `NNC(=O)c1nnn(CCc2ccccc2)c1C(=O)NN` .
> 100 µM (inactive)

In one line, give reported GI50 of the entry `O=[N+]([O-])c1ccc(S(=O)(=O)n2c3ccc(Br)cc3c3nc4ccccc4nc32)cc1` .
> 100 µM (inactive)

In one line, give reported GI50 of the entry `CCCCCCc1cc2cc(-c3cn4ccsc4n3)c(=O)oc2cc1O` .
> 100 µM (inactive)

In one line, give reported GI50 of the entry COC(=O)c1ccccc1CC(Cc1ccc2c(c1)CCC2)C(=O)OC (configuration not stated) .
> 100 µM (inactive)

###

- System: K562
- experiment.summary: NCI tumour cell line growth inhibition, 48 h
Calls of active or inactive are those of the source. No stated cut-off is given here; in the data, active = GI50 up to about 1.1 µM and inactive = higher.
attribute.measured: GI50

The examples below pair each entry with its known result.
>  <compound>
COC(=O)C1=COC2OC3C(C(C)O)C(=O)OC34C=CC1C24 (centres undefined)

>  <GI50>
32.2 µM (inactive)

$$$$
>  <compound>
O=C(COc1ccc(OCC(=O)N/N=C/c2ccc(-c3ccc(Cl)cc3Cl)o2)c(Cl)c1)N/N=C/c1ccc(-c2ccc(Cl)cc2Cl)o1

>  <GI50>
15.3 µM (inactive)

$$$$
>  <compound>
O=C(N/N=C/c1ccc2c(c1)CCC2)c1ccccc1O

>  <GI50>
38.9 µM (inactive)

$$$$

Then this compound:
In one line, give reported GI50 of the entry CCOC(=O)N/N=C/C1=NN(C(=O)OCC)[S+]([O-])C1C (centres undefined) .
> 100 µM (inactive)

###

- Test system: KM12
- experiment.summary: NCI tumour cell line growth inhibition, 48 h
Calls of active or inactive are those of the source. Rule as the data show it: active = GI50 up to about 1.1 µM and inactive = higher.
Catalogue of compounds with associated GI50

The examples below pair each entry with its known result.
>  <compound>
O=C(COc1ccc(OCC(=O)N/N=C/c2ccc(-c3ccc(Cl)cc3Cl)o2)c(Cl)c1)N/N=C/c1ccc(-c2ccc(Cl)cc2Cl)o1

>  <tested.system>
KM12

>  <reported.value>
> 100 µM (inactive)

$$$$
>  <compound>
COC(=O)c1c(OC(=O)c2ccccc2)noc1CC(=O)OC1C=CCCC1 (stereo not given)

>  <tested.system>
KM12

>  <reported.value>
> 100 µM (inactive)

$$$$
>  <compound>
C=C1CC2CC(O)CC(C1)C2 (stereo not given)

>  <tested.system>
KM12

>  <reported.value>
> 100 µM (inactive)

$$$$
>  <compound>
C=C1C(=O)OC2/C=C(\CO)C3OC3C3OC3(C)CC(OC(=O)/C(=C/C)COC(C)=O)C12 (stereo not given)

>  <tested.system>
KM12

>  <reported.value>
7.31 µM (inactive)

$$$$

In one line, give reported GI50 of the entry COc1cc(C2(c3ncc[nH]3)SSSCC2O)ccc1O (stereo not given) .
> 100 µM (inactive)
